Assay: Plasma pharmacokinetics of bimiralisib, non-compartmental analysis (LC-MS)
Type: in vivo, human
Settings: human, plasma, oral, 140 mg, Intermittent Dose Schedule A, 140 mg, Day 8, n = 3; read-out: AUC0–24 Geometric Mean (%CV)
Description: Blood samples were collected to enable full PK profiling of bimiralisib. […] The pharmacokinetics of bimiralisib were determined by non-compartmental analysis. Area under the concentration vs. time curve (AUC) was calculated using the linear up log down trapezoidal method. Accumulation was calculated as the ratio of cycle 1 on Day 15 AUC0–8h versus cycle 1 on Day -3 AUC0–8h.
measure: AUC(0-t) (µg·h/mL)
All answers are understood in µg·h/mL, so give the number only.

IN: Consider the compound Nc1cc(C(F)(F)F)c(-c2nc(N3CCOCC3)nc(N3CCOCC3)n2)cn1 [bimiralisib] and give its measured AUC(0-t).
OUT: 7.59

---

Assay: Plasma pharmacokinetics of bimiralisib, non-compartmental analysis (LC-MS)
Type: in vivo, human
Details: human, plasma, oral, 160 mg, Intermittent Dose Schedule A, 160 mg, Day -3, 3 patients; read-out: Cmax Mean (%CV)
measure: Cmax (ng/mL)
All answers are understood in ng/mL, so give the number only.

IN: Consider the compound Nc1cc(C(F)(F)F)c(-c2nc(N3CCOCC3)nc(N3CCOCC3)n2)cn1 and give its measured Cmax.
OUT: 539

---

Test: Plasma pharmacokinetics of bimiralisib, non-compartmental analysis (LC-MS)
Type: in vivo, human
Conditions: human, plasma, oral, 140 mg, Intermittent Dose Schedule A, 140 mg, Day 8, 6 patients; read-out: Tmax Median, (Range)
Experimental: Blood samples were collected to enable full PK profiling of bimiralisib. […] The pharmacokinetics of bimiralisib were determined by non-compartmental analysis. Area under the concentration vs. time curve (AUC) was calculated using the linear up log down trapezoidal method. Accumulation was calculated as the ratio of cycle 1 on Day 15 AUC0–8h versus cycle 1 on Day -3 AUC0–8h.
measure: Tmax (h)
All answers are understood in h, so give the number only.

IN: Consider the compound Nc1cc(C(F)(F)F)c(-c2nc(N3CCOCC3)nc(N3CCOCC3)n2)cn1 and give its measured Tmax.
OUT: 1

---

Assay: Plasma pharmacokinetics of bimiralisib, non-compartmental analysis (LC-MS)
Assay type: in vivo, human
Conditions: human, plasma, oral, 80 mg, Intermittent Dose Schedule A, 80 mg, Day 8, 3 patients; read-out: AUC0–8 Geometric Mean (%CV)
Experimental: Blood samples were collected to enable full PK profiling of bimiralisib. […] The pharmacokinetics of bimiralisib were determined by non-compartmental analysis. Area under the concentration vs. time curve (AUC) was calculated using the linear up log down trapezoidal method. Accumulation was calculated as the ratio of cycle 1 on Day 15 AUC0–8h versus cycle 1 on Day -3 AUC0–8h.
measure: AUC(0-t) (ng·h/mL)
All answers are understood in ng·h/mL, so give the number only.

IN: Consider the compound Nc1cc(C(F)(F)F)c(-c2nc(N3CCOCC3)nc(N3CCOCC3)n2)cn1 and give its measured AUC(0-t).
OUT: 2350

---

Assay: Plasma pharmacokinetics of bimiralisib, non-compartmental analysis (LC-MS)
Assay type: in vivo, human
Conditions: human, plasma, oral, 160 mg, Intermittent Dose Schedule A, 160 mg, Day 8, 3 patients; read-out: AUC0–8 Geometric Mean (%CV)
measure: AUC(0-t) (ng·h/mL)
All answers are understood in ng·h/mL, so give the number only.

IN: Consider the molecule Nc1cc(C(F)(F)F)c(-c2nc(N3CCOCC3)nc(N3CCOCC3)n2)cn1 [bimiralisib] and give its measured AUC(0-t).
OUT: 4080

---

Assay: Plasma pharmacokinetics of bimiralisib, non-compartmental analysis (LC-MS)
Type: in vivo, human
Conditions: human, plasma, oral, 80 mg, Continuous Dosing, 80 mg, Day -3, 11 patients; read-out: Tmax Median, (Range)
measure: Tmax
The answer consists of two parts: a number and, after it, its unit.

IN: Consider the compound Nc1cc(C(F)(F)F)c(-c2nc(N3CCOCC3)nc(N3CCOCC3)n2)cn1 and give its measured Tmax.
OUT: 2 h

---

Assay: Plasma pharmacokinetics of bimiralisib, non-compartmental analysis (LC-MS)
Format: in vivo, human
Settings: human, plasma, oral, 100 mg, Continuous Dosing, 100 mg, Day 1, 5 patients; read-out: AUC0–8 Geometric Mean (%CV)
measure: AUC(0-t)
The answer consists of two parts: a number and, after it, its unit.

IN: Consider the molecule Nc1cc(C(F)(F)F)c(-c2nc(N3CCOCC3)nc(N3CCOCC3)n2)cn1 and give its measured AUC(0-t).
OUT: 1690 ng·h/mL

---

Assay: Plasma pharmacokinetics of bimiralisib, non-compartmental analysis (LC-MS)
Assay type: in vivo, human
Conditions: human, plasma, oral, 120 mg, Intermittent Dose Schedule A, 120 mg, Day -3, 4 patients; read-out: Tmax Median, (Range)
measure: Tmax (h)
All answers are understood in h, so give the number only.

IN: Consider the molecule Nc1cc(C(F)(F)F)c(-c2nc(N3CCOCC3)nc(N3CCOCC3)n2)cn1 and give its measured Tmax.
OUT: 3

---

Experiment: Plasma pharmacokinetics of bimiralisib, non-compartmental analysis (LC-MS)
Type: in vivo, human
Conditions: human, plasma, oral, 120 mg, Intermittent Dose Schedule A, 120 mg, Day 8, 3 patients; read-out: AUC0–8 Geometric Mean (%CV)
measure: AUC(0-t) (ng·h/mL)
All answers are understood in ng·h/mL, so give the number only.

IN: Consider the compound Nc1cc(C(F)(F)F)c(-c2nc(N3CCOCC3)nc(N3CCOCC3)n2)cn1 and give its measured AUC(0-t).
OUT: 3710

---

Experiment: Plasma pharmacokinetics of bimiralisib, non-compartmental analysis (LC-MS)
Assay type: in vivo, human
Conditions: human, plasma, oral, 120 mg, Intermittent Dose Schedule A, 120 mg, Day 8, 3 patients; read-out: AUC0–24 Geometric Mean (%CV)
measure: AUC(0-t) (ng·h/mL)
All answers are understood in ng·h/mL, so give the number only.

IN: Consider the compound Nc1cc(C(F)(F)F)c(-c2nc(N3CCOCC3)nc(N3CCOCC3)n2)cn1 [bimiralisib] and give its measured AUC(0-t).
OUT: 8940

---

Assay: Plasma pharmacokinetics of bimiralisib, non-compartmental analysis (LC-MS)
Format: in vivo, human
Conditions: human, plasma, oral, 80 mg, Continuous Dosing, 80 mg, Day 15, 7 patients; read-out: Tmax Median, (Range)
measure: Tmax (h)
All answers are understood in h, so give the number only.

IN: Consider the compound Nc1cc(C(F)(F)F)c(-c2nc(N3CCOCC3)nc(N3CCOCC3)n2)cn1 and give its measured Tmax.
OUT: 1

---

Assay: Plasma pharmacokinetics of bimiralisib, non-compartmental analysis (LC-MS)
Assay type: in vivo, human
Details: human, plasma, oral, 100 mg, Continuous Dosing, 100 mg, Day 15, 2 patients; read-out: Tmax Median, (Range)
Description: Blood samples were collected to enable full PK profiling of bimiralisib. […] The pharmacokinetics of bimiralisib were determined by non-compartmental analysis. Area under the concentration vs. time curve (AUC) was calculated using the linear up log down trapezoidal method. Accumulation was calculated as the ratio of cycle 1 on Day 15 AUC0–8h versus cycle 1 on Day -3 AUC0–8h.
measure: Tmax (h)
All answers are understood in h, so give the number only.

IN: Consider the compound Nc1cc(C(F)(F)F)c(-c2nc(N3CCOCC3)nc(N3CCOCC3)n2)cn1 and give its measured Tmax.
OUT: 2

---

Assay: Plasma pharmacokinetics of bimiralisib, non-compartmental analysis (LC-MS)
Assay type: in vivo, human
Settings: human, plasma, oral, 120 mg, Intermittent Dose Schedule A, 120 mg, Day -3, 4 patients; read-out: AUC0–8 Geometric Mean (%CV)
measure: AUC(0-t) (ng·h/mL)
All answers are understood in ng·h/mL, so give the number only.

IN: Consider the compound Nc1cc(C(F)(F)F)c(-c2nc(N3CCOCC3)nc(N3CCOCC3)n2)cn1 and give its measured AUC(0-t).
OUT: 2590

---

Test: Plasma pharmacokinetics of bimiralisib, non-compartmental analysis (LC-MS)
Type: in vivo, human
Conditions: human, plasma, oral, 160 mg, Intermittent Dose Schedule B, 160 mg, Day 1, 3 patients; read-out: Cmax Mean (%CV)
Experimental: Blood samples were collected to enable full PK profiling of bimiralisib. […] The pharmacokinetics of bimiralisib were determined by non-compartmental analysis. Area under the concentration vs. time curve (AUC) was calculated using the linear up log down trapezoidal method. Accumulation was calculated as the ratio of cycle 1 on Day 15 AUC0–8h versus cycle 1 on Day -3 AUC0–8h.
measure: Cmax (ng/mL)
All answers are understood in ng/mL, so give the number only.

IN: Consider the compound Nc1cc(C(F)(F)F)c(-c2nc(N3CCOCC3)nc(N3CCOCC3)n2)cn1 and give its measured Cmax.
OUT: 317

---

Assay: Plasma pharmacokinetics of bimiralisib, non-compartmental analysis (LC-MS)
Format: in vivo, human
Conditions: human, plasma, oral, 100 mg, Continuous Dosing, 100 mg, Day 1, 5 patients; read-out: Cmax Mean (%CV)
measure: Cmax (ng/mL)
All answers are understood in ng/mL, so give the number only.

IN: Consider the molecule Nc1cc(C(F)(F)F)c(-c2nc(N3CCOCC3)nc(N3CCOCC3)n2)cn1 and give its measured Cmax.
OUT: 441
